test system: in vivo angiogenesis, blood vessel count; assay: reduction of blood vessel formation in vivo – HTS, in vivo study (AID 732); details: active compounds read low;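 tested at 30 µM in the well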;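 note: zebrafish embryos dosed at one day post fertilization; 0% = reference inhibitor and 100% = plate mean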
OBSERVED PROPERTY: vessel count % control (%)

# MOLECULE, OBSERVED PROPERTY, REPORTED RESULT
data = [
    ("CN1C[C@H](CNC(=O)OCc2ccccc2)C[C@@H]2c3cccc4c3c(cn4C)C[C@H]21", "vessel count % control", 111),
    ("N=C(N)SCCc1cnc[nH]1", "vessel count % control", 150),
    ("O=C(O)CCC/C=C\\C[C@@H]1[C@@H](/C=C/[C@H](O)C2Cc3ccccc3C2)[C@@H](F)C[C@@H]1O", "vessel count % control", 121),
    ("Ic1ccc(N2CCN(Cc3c[nH]c4ncccc34)CC2)cc1", "vessel count % control", 99.4),
    ("CCc1c(C(=O)OC)ncc2[nH]c3cc(OC)c(OC)cc3c12", "vessel count % control", 129),
    ("O=C(O)/C(=C/c1c(C(=O)O)[nH]c2cc(Cl)cc(Cl)c12)c1ccccc1", "vessel count % control", 108),
    ("c1cnc2c(c1)ccc1cccnc12", "vessel count % control", 0),
    ("NC(N)=NCCCCN=C(N)N", "vessel count % control", 88),
    ("Cc1nc2sccn2c(=O)c1CCN1CCC(=C(c2ccc(F)cc2)c2ccc(F)cc2)CC1", "vessel count % control", 68.8),
    ("O=C(O)CC1CCCc2ccccc2C1O (centres undefined)", "vessel count % control", 137),
    ("Oc1[nH]c2c(Cl)cc(Cl)cc2c1C1=Nc2ccc(Br)cc2/C1=N\\OCCBr", "vessel count % control", 121),
    ("CCCn1c(=O)c2[nH]c(-c3ccc(OCC(=O)NCCN)cc3)nc2n(CCC)c1=O", "vessel count % control", 99.8),
    ("C#CCN[C@H](C)Cc1ccccc1", "vessel count % control", 114),
    ("CC(O)C(C)OC(=O)[C@@H]1C[C@@H]2c3cccc4c3c(cn4C(C)C)C[C@H]2N(C)C1 (some centres undefined)", "vessel count % control", 90.9),
    ("O=C(O)C1=CC(=C(c2ccc(O)c(C(=O)O)c2)c2ccc(O)c(C(=O)O)c2)C=CC1=O", "vessel count % control", 109),
    ("Cc1ccc(OCC(O)C(C)NC(C)C)c2c1CCC2 (centres undefined)", "vessel count % control", 103),
    ("OCc1cc(C(O)CNCCCCCCOCCCCc2ccccc2)ccc1O (centres undefined)", "vessel count % control", 126),
    ("CCCC(C)(COC(N)=O)COC(=O)NC(C)C (centres undefined)", "vessel count % control", 103),
    ("CN(C)CCCO[C@@H]1[C@H]2OC(C)(C)O[C@H]2O[C@@H]1C(O)CO (some centres undefined)", "vessel count % control", 88),
    ("CNC(=O)[C@H]1O[C@@H](n2cnc3c(N)ncnc32)C(O)[C@H]1O (some centres undefined)", "vessel count % control", 118),
    ("OCCN(CCO)c1nc(N2CCCCC2)c2nc(N(CCO)CCO)nc(N3CCCCC3)c2n1", "vessel count % control", 109),
    ("CC(C)C[C@H](NC(=O)[C@H](O)[C@H](N)Cc1ccccc1)C(=O)O", "vessel count % control", 104),
    ("O=C(Cc1ccc(Cl)c(Cl)c1)OCCN1CCCC1", "vessel count % control", 81.9),
    ("CCCC(CCC)C(=O)O", "vessel count % control", 89.7),
    ("Nc1ncnc2c1ncn2[C@@H]1O[C@H](COP(=O)(O)CP(=O)(O)OP(=O)(O)O)[C@H](O)C1O (some centres undefined)", "vessel count % control", 95.1),
    ("Cc1ccc2[nH]c(O)c(C3=Nc4ccc(Br)cc4C3=O)c2c1", "vessel count % control", 108),
    ("C=C1C(=O)O[C@@H]2[C@H]3O[C@]3(C)CCC=C(C)CC[C@@H]12", "vessel count % control", 92.5),
    ("NCC(O)c1ccc(O)c(O)c1 (centres undefined)", "vessel count % control", 108),
    ("NC1C=CC=C(C(=O)O)C1 (centres undefined)", "vessel count % control", 114),
    ("CCC1(C)CC(=O)NC1=O (centres undefined)", "vessel count % control", 95.8),
    ("CCCC[N+]1(C)C2CC(OC(=O)[C@H](CO)c3ccccc3)CC1C1OC12 (some centres undefined)", "vessel count % control", 107),
    ("CC(C)C1C2CCC(C2)C1N (centres undefined)", "vessel count % control", 95.1),
    ("O=C1c2c(O)cc(O)cc2OC(c2ccc(O)c(O)c2)C1O (centres undefined)", "vessel count % control", 80.8),
    ("NCCc1ccc(S(=O)(=O)F)cc1", "vessel count % control", 87.5),
    ("O=C1C(c2c(O)[nH]c3ccc(F)cc23)=Nc2ccccc21", "vessel count % control", 59),
    ("C[C@@H](N)Cc1cnc[nH]1", "vessel count % control", 97.8),
    ("N=S(=O)(O)Cc1noc2ccccc12", "vessel count % control", 88.2),
    ("CN1CCN(CCCN2c3ccccc3Sc3ccc(Cl)cc32)CC1", "vessel count % control", 68.9),
    ("NCCCCNCCCN", "vessel count % control", 122),
]
